- protocol-notes: MTS cytotoxicity assay on LX-2 normal hepatic cells
- experimental-context: human, LX-2 hepatic stellate cells
outcome-measure: viability at 24 h, 100 µM (%)
Answer format: numeric, % implied, no suffix.

These solved cases illustrate the format of a correct answer.
O=c1[nH]cc(F)c(=O)[nH]1 [5-Fu, 5-Fluorouracil, reference compound]	13.4
S=c1[nH]nc(Cn2c3ccccc3c3ccccc32)n1CCc1ccccc1 [C5s]	37.8
COc1ccc(-n2c(Cn3c4ccccc4c4ccccc43)n[nH]c2=S)cc1 [C5f]	63.6
S=c1[nH]nc(Cn2c3ccccc3c3ccccc32)n1C1CC2CCC1C2 (centres unmarked) [C5r]	64.5

Determine from records and report viability at 24 h, 100 µM for O=C(c1ccccc1)n1c(Cn2c3ccccc3c3ccccc32)n[nH]c1=S [C5o]
36.5

###

The following compounds are listed with their measured viability at 24 h, 100 µM values.
- protocol-notes: MTS cytotoxicity assay on LX-2 normal hepatic cells
- experimental-context: human, LX-2 hepatic stellate cells

S=c1[nH]nc(Cn2c3ccccc3c3ccccc32)n1-c1ccc(Cl)cc1 [C5h]	65.3 to 85.3%
S=c1[nH]nc(Cn2c3ccccc3c3ccccc32)n1-c1ccc(Br)cc1 [C5g]	65.3 to 85.3%

Continue with the compound presented below.
State its viability at 24 h, 100 µM for this compound: S=c1[nH]nc(Cn2c3ccccc3c3ccccc32)n1C1CCCCC1 [C5m]
65.3 to 85.3%
